molecular target: T1, cTnI quality control product recombinant protein (human, UniProt P19429 2-210, limits assumed); assay: AMC sensor, antibody immobilised, cTnI in solution
T1 construct: treated as the same molecule; also called cTnI antigen; cardiac troponin I
T1 sequence (P19429 2-210 limits assumed): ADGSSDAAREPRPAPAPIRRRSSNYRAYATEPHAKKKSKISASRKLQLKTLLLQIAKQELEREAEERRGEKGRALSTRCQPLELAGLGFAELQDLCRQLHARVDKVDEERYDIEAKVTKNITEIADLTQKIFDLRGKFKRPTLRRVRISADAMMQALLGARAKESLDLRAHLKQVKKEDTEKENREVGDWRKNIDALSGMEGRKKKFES
Below is a list of entries, each paired with its recorded Kd value.
Numbers only; they are read as nM.

Examples with answers:
Mutation 1-33 (antibody, V domains shown, Built as m8) VH: EVQLQQSGPELVKPGASVKMSCKASGYTFTLYVVHWVKQKPGQGLEWIGYIYPYIDGTKYNEKFKGKATLTVDKSSSTAFMELSSLTSEDSAVYYCARSGYGGYGLAWLAYWGQGTLVTVSA VL: QAVVIQESALTTSPGETVTLTCRSSTGAATTSQYANWVQEKPDHLFTGLIGGSQNRAPGVPARFSGSLIGDKAALTITGAQTEDEAIYFCALVYSNNWVFGGGTKLTVLG :: 7.95
Mutation 1-20 (antibody, V domains shown, Built as m8) VH: EVQLQQSGPELVKPGASVKMSCKASGYTFTIYVIHWVKQKPGQGLEWIGYIYPYIDGTKYNEKFKGKATLTVDKSSSTAFMELSSLTSEDSAVYYCARSGYGGYGLAWLAYWGQGTLVTVSA VL: QAVVIQESALTTSPGETVTLTCRSSTGAATTSQYANWVQEKPDHLFTGLIGGSNNRAPGVPARFSGSLIGDKAALTITGAQTEDEAIYFCALVYSNNWVFGGGTKLTVLG :: 7.74
Mutation 1-46 (antibody, V domains shown, Built as m8) VH: EVQLQQSGPELVKPGASVKMSCKASGYTFTIYVLHWVKQKPGQGLEWIGYINPYIDGTKYNEKFKGKATLTVDKSSSTAFMELSSLTSEDSAVYYCARSGYGNYGLAWLAYWGQGTLVTVSA VL: QAVVIQESALTTSPGETVTLTCRSSTGAVTTSNYANWVQEKPDHLFTGLIGGSNNRAPGVPARFSGSLIGDKAALTITGAQTEDEAIYFCALVYSNNWVFGGGTKLTVLG :: 5.41
Mutation 1-8 (antibody, V domains shown, Built as m8) VH: EVQLQQSGPELVKPGASVKMSCKASGYTFTIYVIHWVKQKPGQGLEWIGYIQPYLDGTKYNEKFKGKATLTVDKSSSTAFMELSSLTSEDSAVYYCARSGYGGYGLAWLAYWGQGTLVTVSA VL: QAVVIQESALTTSPGETVTLTCRSSTGAATTSQYANWVQEKPDHLFTGLIGGSNNRAPGVPARFSGSLIGDKAALTITGAQTEDEAIYFCALVYSNQWVFGGGTKLTVLG :: 9.31

// switching to the query binder
**Q:** Returns the measured Kd for the input binder. Input: Mutation 1-51 (antibody, V domains shown, Built as m8) VH: EVQLQQSGPELVKPGASVKMSCKASGYTFTIYVVHWVKQKPGQGLEWIGYIQPYIDGTKYNEKFKGKATLTVDKSSSTAFMELSSLTSEDSAVYYCARSGYGQYGLAWLAYWGQGTLVTVSA VL: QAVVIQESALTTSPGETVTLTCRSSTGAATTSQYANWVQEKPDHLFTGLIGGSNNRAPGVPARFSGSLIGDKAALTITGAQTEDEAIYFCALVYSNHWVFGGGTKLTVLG
**A:** 7.3
